Catalogue of inhibition at 10 µM values
molecular target: hDAT (Homo sapiens); test: PDSP screen: [^3H]24 binding at hDAT; conditions: read-out: hDAT Binding Inhibition, % of control
Sequence (Q01959 whole entry): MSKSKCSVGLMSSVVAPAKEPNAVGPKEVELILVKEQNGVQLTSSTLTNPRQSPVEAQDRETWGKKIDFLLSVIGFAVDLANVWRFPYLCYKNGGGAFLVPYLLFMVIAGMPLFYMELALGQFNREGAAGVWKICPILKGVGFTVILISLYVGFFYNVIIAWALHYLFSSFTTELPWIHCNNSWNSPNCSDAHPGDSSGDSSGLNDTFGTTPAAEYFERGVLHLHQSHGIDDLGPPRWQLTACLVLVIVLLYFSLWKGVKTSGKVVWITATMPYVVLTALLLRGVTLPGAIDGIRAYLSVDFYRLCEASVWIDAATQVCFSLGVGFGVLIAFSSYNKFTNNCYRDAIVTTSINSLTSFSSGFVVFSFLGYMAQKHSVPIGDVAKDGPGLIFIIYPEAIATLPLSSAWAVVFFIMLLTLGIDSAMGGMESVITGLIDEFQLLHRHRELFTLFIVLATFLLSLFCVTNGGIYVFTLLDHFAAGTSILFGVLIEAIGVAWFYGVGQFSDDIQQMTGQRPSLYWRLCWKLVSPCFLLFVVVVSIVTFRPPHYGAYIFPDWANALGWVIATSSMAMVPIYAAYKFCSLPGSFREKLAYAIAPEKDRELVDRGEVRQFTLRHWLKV

In the examples that follow, each entry is paired with its recorded inhibition at 10 µM.
CCCOC(=O)[C@@]12C[C@@H]1[C@@H](n1cnc3c(NC)nc(C#Cc4ccc(Cl)s4)nc31)[C@H](O)[C@@H]2O [compound 14] : < -20%
CNc1nc(C#Cc2ccc(Cl)s2)nc2c1ncn2[C@H]1[C@H](O)[C@H](O)[C@]2(C(=O)OCCCc3ccccc3)C[C@H]12 [compound 21] : -20 to 20%
CNc1nc(C#Cc2ccc(Cl)s2)nc2c1ncn2[C@H]1[C@H](O)[C@H](O)[C@]2(C(=O)NCCN)C[C@H]12 [compound 8] : < -20%
CNc1nc(C#Cc2ccc(Cl)s2)nc2c1ncn2[C@H]1[C@H](O)[C@H](O)[C@]2(C(=O)O)C[C@H]12 [compound 22] : < -20%
CNc1nc(C#Cc2ccc(Cl)s2)nc2c1ncn2[C@H]1[C@H](O)[C@H](O)[C@]2(C(=O)OCCC(C)C)C[C@H]12 [compound 17] : < -20%
CNc1nc(C#Cc2ccc(Cl)s2)nc2c1ncn2[C@H]1[C@H](O)[C@H](O)[C@]2(C(=O)OCc3ccccc3)C[C@H]12 [compound 19] : -20 to 20%
CCCNc1nc(C#Cc2ccc(Cl)s2)nc2c1ncn2[C@@H]1O[C@H](C(=O)NC)[C@@H](O)[C@H]1O [compound 28] : < -20%
CNc1nc(C#Cc2ccc(Cl)s2)nc2c1ncn2[C@H]1[C@H](O)[C@H](O)[C@]2(C(=O)OCCc3ccccc3)C[C@H]12 [compound 20] : -20 to 20%
CNC(=O)[C@@]12C[C@@H]1[C@@H](n1cnc3c(NC)nc(C#Cc4ccc(Cl)s4)cc31)[C@H](O)[C@@H]2O [compound 6] : < -20%
CCCCOC(=O)[C@@]12C[C@@H]1[C@@H](n1cnc3c(NC)nc(C#Cc4ccc(Cl)s4)nc31)[C@H](O)[C@@H]2O [compound 16] : < -20%

Request: Item CCOC(=O)[C@@]12C[C@@H]1[C@@H](n1cnc3c(NC)nc(C#Cc4ccc(Cl)s4)cc31)[C@H](O)[C@@H]2O [compound 13] has what recorded inhibition at 10 µM?
Result: < -20%

Request: Item CNc1nc(C#Cc2ccc(Cl)s2)nc2c1ncn2[C@@H]1O[C@H](C(=O)OC)[C@@H](O)[C@H]1O [compound 29] has what recorded inhibition at 10 µM?
Result: < -20%
